# Tested on: BDF1 mice, P388 leukemia ip, median survival T/C
# measurement_description: NCI In Vivo Anticancer Drug Screen. Data for tumor model P388 Leukemia (intraperitoneal) in B6D2F1 (BDF1) mice
# measurement_conditions: endpoint: median survival time; dose: 3.13 mg/kg/injection; schedule: Q01DX009 (ip); vehicle: saline
Inconclusive results and toxic doses are left out. Rule for the calls: active = survival T/C of 150% or more; inactive = T/C below 125% in these data.
Outcomes you can answer with include only these: active, inactive

Exam item: Write down the call the test reported for this compound. Item: NC(=O)CCC(N)C(=O)O.[Cl-].[Cl-].[Cl-].[Cl-].[Pt+2] (stereo not given)
Marked response: inactive

Exam item: Call for entry CN1CCCC1c1cccnc1 (stereo not given) :
Marked response: inactive

Exam item: Which outcome did this test record for the compound COc1cc2ccc3c(c2cc1OC)C=NCC3 ?
Marked response: inactive

Exam item: Hi, do you know how COc1cc(NS(C)(=O)=O)ccc1Nc1c2cccc(C)c2nc2c(C)cccc12 came out in this test?
Marked response: active

Exam item: Fill in: this test's call for CN(CCO)/N=N/c1nc[nH]c1C(N)=O is ___
Marked response: inactive

----------
# System: BDF1 mice, P388 leukemia ip, median survival T/C
# measurement_description: NCI In Vivo Anticancer Drug Screen. Data for tumor model P388 Leukemia (intraperitoneal) in B6D2F1 (BDF1) mice
# measurement_conditions: endpoint: median survival time; dose: 50.0 mg/kg/injection; schedule: Q04DX003 (ip); vehicle: water
Inconclusive results and toxic doses are left out. The calls were made as follows: active = survival T/C of 150% or more; inactive = T/C below 125% in these data.
Parameter call: string, one of yes (1) for active, no (0) for inactive

Exam item: Call for entry NC(=O)OCc1c(O)c2c(c(O)c1COC(N)=O)C(=O)C=CC2=O :
Marked response: no (0)

Exam item: Per the assay record, what outcome was assigned to Nc1cc(OCc2ccccc2)cc(OCc2ccccc2)c1 ?
Marked response: no (0)

Exam item: What classification did Nc1nc(N)c2c(Cl)c(CNc3ccc(Cl)c(Cl)c3)ccc2n1 end up with in this test?
Marked response: yes (1)

Exam item: # lookup: test call for COc1ccc(C2C=C(C)Oc3c2c(=O)oc2ccccc32)cc1OC (stereo not drawn)
Marked response: no (0)

Exam item: Could you kindly confirm the outcome this assay logged for CC1CN(Cc2cccc(C#N)c2)CC(C)N1 (stereo not drawn) ?
Marked response: no (0)

Exam item: Dear all, I need the recorded test outcome for O=C1CC(c2c[nH]c3nccnc23)NN1 (stereo not drawn) , thank you.
Marked response: no (0)

Exam item: How did this test come out for COc1cccc(CN2CCNCC2)c1 ?
Marked response: no (0)

Exam item: Field: outcome | Entry: BrCCC1(CCBr)CCCCC1
Marked response: no (0)

----------
# Tested on: BDF1 mice, P388 leukemia ip, median survival T/C
# measurement_description: NCI In Vivo Anticancer Drug Screen. Data for tumor model P388 Leukemia (intraperitoneal) in B6D2F1 (BDF1) mice
# measurement_conditions: endpoint: median survival time; dose: 200.0 mg/kg/injection; schedule: Q01DX001 (ip); vehicle: Klucel (hydroxypropylcellulose) (HPC); higher = longer survival
# Method: The antitumor activity of compounds was measured in mice bearing transplantable tumors. Survival or tumor size were measured and the results are expressed as the measurement made in the treated group (T) divided by the measurement made in the vehicle treated control group (C). The tumor model used in this assay is P388 Leukemia (intraperitoneal) in B6D2F1 (BDF1) mice
Inconclusive results and toxic doses are left out.
measurement_type: T/C

Exam item: Let me know recorded T/C for CCCCCCCCCCCCCCCCNC(=S)Nc1ccc(C(=O)O)cc1 , thanks.
Marked response: 100 % of control

Exam item: Return the recorded T/C value; entry: COC(=O)CSC/C(=N\Nc1ccccc1)c1ccccc1
Marked response: 100 % of control

Exam item: Give the value of T/C reported for the following: O=S(=O)(NCCO)c1ccc(Cl)cc1
Marked response: 100 % of control

Exam item: Annotate the compound O=C(NCC(O)CCl)c1ccc([N+](=O)[O-])cc1 (centres undefined) with its measured T/C.
Marked response: 100 % of control

Exam item: Quick one: give measured T/C for CCCCCCCSCCSCCSCCCCCCC
Marked response: 100 % of control

Exam item: Consider the compound CC1=CC2C(C3C=CC2(C)C(=O)C3(C)Cc2ccccc2)C(C)(Cc2ccccc2)C1=O (centres undefined) and give its recorded T/C.
Marked response: 95 % of control

Exam item: Name the recorded T/C of the compound listed here: COc1cc(C)c(Cl)c(C)c1C#CC(=O)O
Marked response: 111 % of control

Exam item: Supply measured T/C of c1ccc(-c2[nH]c3ccccc3c2-c2ccccc2)cc1 in your reply.
Marked response: 113 % of control

Exam item: # return recorded T/C for entry CN(CCOc1ccccc1O)CCOc1ccccc1O
Marked response: 110 % of control

----------
# Tested on: BDF1 mice, P388 leukemia ip, median survival T/C
# measurement_description: NCI In Vivo Anticancer Drug Screen. Data for tumor model P388 Leukemia (intraperitoneal) in B6D2F1 (BDF1) mice
# measurement_conditions: endpoint: median survival time; dose: 100.0 mg/kg/injection; schedule: Q01DX009 (ip); vehicle: saline with Tween-80; higher = longer survival
Toxic doses and inconclusive results are not listed.
Kindly supply the reported T/C values for the records listed here.

Exam item: Give the reported T/C for this molecule. COc1cc([N+](=O)[O-])cc(C=O)c1OC(=O)c1ccccc1
Marked response: 123 % of control

Exam item: Supply recorded T/C for COc1ncnc2nc[nH]c12 here.
Marked response: 95 % of control

Exam item: Fill in T/C for record OC1CCCCC2CC12 (centres undefined)
Marked response: 101 % of control

Exam item: Given COc1ccc(C=Nc2ccccc2N=Cc2ccc(OC)c(OC)c2)cc1OC , respond with its T/C.
Marked response: 113 % of control

Exam item: Query T/C for O=C1OC(c2ccccc2)(c2ccccc2)Cc2ccccc21
Marked response: 105 % of control

Exam item: Supply reported T/C belonging to this molecule: CCOC(=O)CCCN(c1[nH]c(C)c(C)c1C#N)S(=O)(=O)c1ccc(C)cc1
Marked response: 113 % of control

Exam item: State its T/C: COc1c(I)cc(/C=C(\C)[N+](=O)[O-])cc1I
Marked response: 112 % of control

Exam item: Answer with the recorded T/C of COC(OC)c1nc(SC)[nH]c(=O)c1C only.
Marked response: 91 % of control

Exam item: Look up and state reported T/C for COc1cc(O)c2c(c1)C(=O)c1cc3c(c(O)c1C2=O)C(OC1OC(C)C(OC)C(O)C1OC)C(OC)C(C)(O)C3=O (centres undefined)
Marked response: 120 % of control

Exam item: Please give measured T/C of the following entry: c1ccc(CN2CCN(Cc3ccccc3)C2c2ccccc2)cc1
Marked response: 97 % of control

Exam item: Retrieve T/C measured for N#Cc1c[nH]n2c(=S)ncnc12 and print it.
Marked response: 90 % of control

Exam item: Provide one value: measured T/C of CO/C=C1\Cc2cc(OC)c(OC)cc2C1=O
Marked response: 90 % of control

Exam item: Specify T/C for Cc1ccc2nc(C)n(C)c(=O)c2c1 and stop.
Marked response: 91 % of control

Exam item: Query T/C for Cc1ccn2c(CCc3nnc4cc(C)ccn34)nnc2c1
Marked response: 93 % of control

Exam item: Give T/C for O=C(O)C1CCC(=O)N1C(=O)OCc1ccccc1 (centres undefined)
Marked response: 90 % of control

Exam item: Output T/C of COc1cc2c(cc1OC)C(c1ccc(N=Cc3ccc(Cl)c(Cl)c3)cc1)N(C(=S)Nc1cc(Cl)ccc1Cl)CC2 (centres undefined)
Marked response: 95 % of control

Exam item: Give a short answer stating reported T/C for CC1(C)N=C(N)N=C(N)N1c1ccc(CCCCc2ccc(S(=O)(=O)F)cc2Cl)c(Cl)c1 .
Marked response: 116 % of control

Exam item: Give recorded T/C. COc1cccc(NC(=O)CCC(=O)O)c1
Marked response: 104 % of control

Exam item: # return recorded T/C for input OCCN(CCO)c1cc(/C=C/c2ccnc3ccccc23)nc2ccccc12
Marked response: 89 % of control

Exam item: For the molecule C=C(C)C(=O)NCC(=O)Oc1ccc([N+](=O)[O-])cc1 , give its reported T/C.
Marked response: 102 % of control

Exam item: Determine its reported T/C: Cc1[nH]nc(-c2ccon2)c1N=O
Marked response: 113 % of control

Exam item: Indicate its recorded T/C; the molecule in question is CC(=O)Oc1c(Cl)c(Cl)c(C#N)c(Cl)c1C#N
Marked response: 122 % of control

Exam item: Give reported T/C value for CC1(C)OC1[Si](C)(C)C (centres undefined)
Marked response: 121 % of control

Exam item: Please look at this molecule and report its T/C: COC(=O)CC12CC3(C)CC(C)(C1)CC(CC(=O)OC)(C3)C2
Marked response: 102 % of control

Exam item: Find the measured T/C of CCCN1CSC(=S)N(Cc2ccccc2)C1 and report it.
Marked response: 90 % of control

Exam item: Respond only with T/C recorded for SC1(SC2(S)CCCCC2)CCCCC1
Marked response: 100 % of control

Exam item: Look up T/C of O=C(CNC(=O)Nc1n[nH]c(=S)s1)N/N=C/c1ccccc1O and report it.
Marked response: 91 % of control

Exam item: Look up and state reported T/C for CCOC(=O)C(Cc1ccccc1Cl)(Cc1ccccc1Cl)c1ccccc1
Marked response: 106 % of control

Exam item: Name the recorded T/C of the item CC(C)C(C(=O)c1ccccc1)c1ccccc1 (centres undefined) in your answer.
Marked response: 100 % of control

Exam item: Please give measured T/C of the following entry: Cc1ccc(S(=O)(=O)OCCOC(=O)OCCOS(=O)(=O)c2ccc(C)cc2)cc1
Marked response: 100 % of control

Exam item: Note T/C for the molecule shown: CCCCOCN(COCCCC)c1ncccn1
Marked response: 106 % of control

Exam item: Query T/C for Cc1ccc(-c2nc3ccccc3c(=O)n2/N=C/c2ccc(Cl)cc2Cl)cc1
Marked response: 89 % of control

Exam item: # return recorded T/C for input CSc1ccc(O)c(S)c1
Marked response: 122 % of control

Exam item: Report measured T/C; entry is C[C@@H]1C[C@H]2C(=CC1=O)CC[C@@H]1[C@@H]2CC[C@]2(C)[C@@H](O)CC[C@@H]12
Marked response: 100 % of control

Exam item: Report T/C for CC(=O)N(/N=C/c1cc(C=O)n(-c2ccccc2)n1)c1ccccc1
Marked response: 90 % of control

Exam item: Give the measured T/C for Nc1ccc(OS(=O)(=O)c2ccccc2)cc1
Marked response: 108 % of control

Exam item: Tell me T/C reported for Cc1ccccc1-c1nc2c(N)nc(N)nc2nc1N
Marked response: 122 % of control

Exam item: State, in one line, measured T/C of COc1cccc(C2NC(=O)c3c(n[nH]c3N)S2)c1O (centres undefined)
Marked response: 99 % of control

Exam item: Please supply the value of reported T/C for the item CC1(C)OC1CC1=CC(=O)C=CC1=O (centres undefined)
Marked response: 100 % of control

Exam item: Kindly indicate its recorded T/C. Item: ClC1=C(Cl)C2(Cl)C(Br)C(Br)C1(Cl)C2(Cl)Cl (centres undefined)
Marked response: 90 % of control

Exam item: # return recorded T/C for input O=[N+]([O-])c1ccc(/C=C/c2cc(N(CCO)CCO)c3ccccc3n2)cc1
Marked response: 99 % of control

Exam item: Using the record for C=C(C)CP(=O)(c1ccccc1)c1ccccc1 , state its measured T/C.
Marked response: 100 % of control

Exam item: Check the records and state T/C for CC(=O)N1N=C(N)SC1c1ccc(Cl)c(Cl)c1 (centres undefined)
Marked response: 113 % of control

Exam item: Identify the reported T/C for the following entry. Nn1c(-c2ccc([N+](=O)[O-])cc2)nc2ccccc2c1=O
Marked response: 91 % of control

Exam item: Quickly give me recorded T/C for c1cc[c]([Sn]([c]2ccccc2)([c]2ccccc2)[c]2ccccc2)cc1
Marked response: 94 % of control

Exam item: State its T/C: CC(C)(C)OC(=O)NOc1ccc([N+](=O)[O-])cc1[N+](=O)[O-]
Marked response: 100 % of control

Exam item: Indicate its recorded T/C; the molecule in question is CC(=O)C(O)c1c(O)cc(C)[nH]c1=O (centres undefined)
Marked response: 97 % of control

Exam item: Give T/C for the following molecule: CN(C)N=Nc1ccccc1Cl
Marked response: 157 % of control

Exam item: Report measured T/C; entry is Cc1cc(=O)[nH]c(N(CCO)CCO)n1
Marked response: 100 % of control
